Source: patent US20260250289A1

molecular target: WRN helicase (aa N517-P1238) (Homo sapiens, UniProt Q14191); construct: The core helicase motif of the WRN protein (aa N517-P1238) was produced for this assay; His (N); ZZ (N); 3C protease cleavage site (N); virus and BIICs made in SF9); test: WRN ATPase assay (DNA dependent ATP hydrolysis, ADP-Glo); settings: 3 hours pre-incubation, 300 micromolar ATP, FLAP26 DNA; geometric mean of at least 2
Sequence (Q14191 517-1238): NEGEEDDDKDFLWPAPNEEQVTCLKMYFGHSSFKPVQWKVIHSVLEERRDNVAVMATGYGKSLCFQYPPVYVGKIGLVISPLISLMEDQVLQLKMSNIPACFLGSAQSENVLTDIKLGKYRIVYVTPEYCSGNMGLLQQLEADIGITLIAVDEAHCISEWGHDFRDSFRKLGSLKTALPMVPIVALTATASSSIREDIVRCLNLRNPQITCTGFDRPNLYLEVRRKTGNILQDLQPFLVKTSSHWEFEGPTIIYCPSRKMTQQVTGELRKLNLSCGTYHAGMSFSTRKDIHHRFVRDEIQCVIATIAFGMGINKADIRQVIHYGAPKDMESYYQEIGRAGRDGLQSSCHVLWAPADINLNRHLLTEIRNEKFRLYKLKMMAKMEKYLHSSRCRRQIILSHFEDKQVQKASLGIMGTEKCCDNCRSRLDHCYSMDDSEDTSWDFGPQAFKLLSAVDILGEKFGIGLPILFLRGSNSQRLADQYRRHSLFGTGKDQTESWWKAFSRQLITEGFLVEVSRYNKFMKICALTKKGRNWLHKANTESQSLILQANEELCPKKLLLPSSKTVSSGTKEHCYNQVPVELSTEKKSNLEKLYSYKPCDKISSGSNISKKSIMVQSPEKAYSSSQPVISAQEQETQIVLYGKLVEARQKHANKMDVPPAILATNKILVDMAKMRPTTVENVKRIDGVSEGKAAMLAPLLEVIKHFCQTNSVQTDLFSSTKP
Reported pIC50 values for the following molecules.
Keep it numeric: pIC50 is minus log10 of the concentration in mol/L.

Please review the entries below; each comes with its answer.
CCc1c(N2CCN(C(=O)c3ncc4c(c3O)OCC4)CC2)c(=O)n2nc(C3=CCOCC3)nc2n1CC(=O)Nc1ccc(C(F)(F)F)cc1Cl = 7.30
CC(=O)N1CCN(c2c(C)n(CC(=O)Nc3ccc(Cl)c(Cl)c3)c3nc(C4=CCN(C(=O)OC5CC/C=C/CCC5)CC4)nn3c2=O)CC1 (stereo not shown) = 6.15
Cc1c(N2CCN(C(=O)c3c(F)ccc(F)c3O)CC2)c(=O)n2nc(C3=CCOCC3)nc2n1CC(=O)Nc1ccc(C(F)(F)F)cc1 = 7.52

Consider the additional molecule presented here.
Param item = COC1CC=C(c2nc3n(CC(=O)Nc4ccc(C(F)(F)F)cc4)c(C)c(N4CCN(C(C)=O)CC4)c(=O)n3n2)CC1 (stereo not shown) ; retrieve measured pIC50.
6.70
